- System: HEK-293T
- assay-remarks: Multiplex assay against HEK293T
- Format: toxicity, cell-based
- test-parameters: human, 12 h, 1 µM, compound concentration 1 uM, replicate 2
endpoint-name: Population Tubulin-Different-Phenotype (%)
In your response, the unit should come after the numeric value.

Cc1sc2c(c1C)C(c1ccc(Cl)cc1)=N[C@@H](CC(=O)NCCCCCCCCNC(=O)COc1cccc3c1C(=O)N(C1CCC(=O)NC1=O)C3=O)c1nnc(C)n1-2 (stereo partly drawn)    59%

Enquiry: Quick one: give measured Population Tubulin-Different-Phenotype (%) for "Cc1cnc(-c2cc(N3CCN(C(=O)CCS(C)(=O)=O)CC3)ncc2Cl)c(C)c1"
Return: 24%

Enquiry: Quick one: give measured Population Tubulin-Different-Phenotype (%) for "CCc1cc2cc(NS(=O)(=O)c3ccc(C#N)cc3)ccc2n(CC)c1=O"
Return: 29%

Enquiry: Quick one: give measured Population Tubulin-Different-Phenotype (%) for "CCCCC(=O)N(Cc1ccc(-c2ccccc2-c2nnn[nH]2)cc1)[C@H](C(=O)O)C(C)C"
Return: 21%

Enquiry: Quick one: give measured Population Tubulin-Different-Phenotype (%) for "CC(=O)Nc1cccc2c1c(Sc1ccc(Cl)cc1)c(C)n2CC(=O)O"
Return: 18%

Enquiry: Quick one: give measured Population Tubulin-Different-Phenotype (%) for "CN(C)C(=O)Cn1cc(-c2ccc(-c3cncc4ccccc34)cc2)cn1"
Return: 23%

Enquiry: Quick one: give measured Population Tubulin-Different-Phenotype (%) for "O=C(CCCc1ccccc1)Nc1nc2ccccc2c(=O)s1"
Return: 36%

Enquiry: Quick one: give measured Population Tubulin-Different-Phenotype (%) for "CN1CCN(c2cc(-c3ccccc3)nc(N)n2)CC1"
Return: 16%

Enquiry: Quick one: give measured Population Tubulin-Different-Phenotype (%) for "CC(/C=C1\SC(=S)N(CCCC(=O)Nc2ccc(C(=O)O)c(O)c2)C1=O)=C\c1ccccc1"
Return: 20%

Enquiry: Quick one: give measured Population Tubulin-Different-Phenotype (%) for COC[C@@H](c1ccc(C(F)(F)F)cc1)N1CCN(C2(C)CCN(C(=O)c3c(C)ncnc3C)CC2)C[C@@H]1C.O=C(O)/C=C\C(=O)O [VICRIVIROC MALEATE]
Return: 17%

###

- System: U2OS
- assay-remarks: Multiplex assay against U2OS
- Assay type: toxicity, cell-based
- test-parameters: human, 48 h, 1 µM, compound concentration 1 uM, replicate 2
endpoint-name: Total Cell Count
Just the number, please.

Some solved entries appear below for comparison.
COc1ccccc1N1CCN(C[C@@H](C(=O)NC(C)(C)C)c2ccccc2)CC1.Cl.Cl    162
Cc1onc(-c2ccccc2Cl)c1C(=O)N(C)c1ccc(Cl)cc1    252
CCc1cc2cc(NS(=O)(=O)c3ccc(C#N)cc3)ccc2n(CC)c1=O    192
CC(C)COc1ccc(CNC(=O)N(Cc2ccc(F)cc2)C2CCN(C)CC2)cc1 [PIMAVANSERIN]    234

Enquiry: Quick one: give measured Total Cell Count for CC(C)c1noc(N2CCC(COc3ccc(-c4ccc(S(C)(=O)=O)cc4)nc3)CC2)n1 [GSK-1292263]
Return: 201

Enquiry: Quick one: give measured Total Cell Count for Cl.NCCc1ccc(O)c(O)c1 [DOPAMINE HYDROCHLORIDE]
Return: 172

###

- System: Fibroblast
- assay-remarks: Multiplex assay against human fibroblast
- Format: toxicity, cell-based
- test-parameters: 24 h, 1 µM, compound concentration 1 uM, replicate 1
endpoint-name: Population Membrane Permeable-Phenotype (%)
Give just the number in %; leave the unit off.

N#Cc1cc(F)cc(-c2nc(-c3ccc(F)cn3)no2)c1    1
Cl.NCCc1ccc(O)c(O)c1 [DOPAMINE HYDROCHLORIDE]    1

Enquiry: Quick one: give measured Population Membrane Permeable-Phenotype (%) for "O=C(CCCc1ccccc1)Nc1nc2ccccc2c(=O)s1"
Return: 0

Enquiry: Quick one: give measured Population Membrane Permeable-Phenotype (%) for "CC(/C=C1\SC(=S)N(CCCC(=O)Nc2ccc(C(=O)O)c(O)c2)C1=O)=C\c1ccccc1"
Return: 2

Enquiry: Quick one: give measured Population Membrane Permeable-Phenotype (%) for "Cc1cnc(-c2cc(N3CCN(C(=O)CCS(C)(=O)=O)CC3)ncc2Cl)c(C)c1"
Return: 2

Enquiry: Quick one: give measured Population Membrane Permeable-Phenotype (%) for "Cc1c(CC(=O)O)c2cccnc2n1Cc1ccc(S(C)(=O)=O)cc1C(F)(F)F"
Return: 1

Enquiry: Quick one: give measured Population Membrane Permeable-Phenotype (%) for "C[C@H](N)COC(=O)[C@@H](CCCCN)NC(=O)Cc1c(-c2ccc3ccccc3c2)[nH]c2c1ccc1ccccc12"
Return: 0

Enquiry: Quick one: give measured Population Membrane Permeable-Phenotype (%) for "CCc1cc2cc(NS(=O)(=O)c3ccc(C#N)cc3)ccc2n(CC)c1=O"
Return: 1
